Numbers sourced from ChEMBL document CHEMBL4014346.

# study_system: CYP19A1 (Homo sapiens)
# Sequence (P11511 whole entry): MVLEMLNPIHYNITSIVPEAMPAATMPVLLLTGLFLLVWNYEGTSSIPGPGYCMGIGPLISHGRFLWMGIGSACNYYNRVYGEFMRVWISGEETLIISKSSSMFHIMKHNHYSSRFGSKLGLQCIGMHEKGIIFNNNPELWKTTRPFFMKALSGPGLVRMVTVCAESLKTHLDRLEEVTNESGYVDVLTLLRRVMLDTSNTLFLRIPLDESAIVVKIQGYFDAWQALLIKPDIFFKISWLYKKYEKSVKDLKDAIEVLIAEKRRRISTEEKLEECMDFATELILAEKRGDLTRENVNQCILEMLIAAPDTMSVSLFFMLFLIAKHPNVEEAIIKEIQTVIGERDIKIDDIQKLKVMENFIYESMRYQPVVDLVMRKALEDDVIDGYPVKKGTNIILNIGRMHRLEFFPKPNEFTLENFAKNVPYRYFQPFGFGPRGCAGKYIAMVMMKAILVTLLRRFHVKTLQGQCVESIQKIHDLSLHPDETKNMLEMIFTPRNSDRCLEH
# protocol_text: Inhibition of human placental microsomal CYP19A1 at 2 uM using [1beta-3H]-androstenedione as substrate after 20 mins in presence of NADPH by scintillation spectrometric method relative to control
# Type: ADME
# settings: placental microsomes, probe [1beta-3H]-androstenedione
measurement_type: inhibition at 20 min, 2 µM

[[record]]
smiles_entry = "Cc1cncc(Cc2cc(-c3ccccc3)no2)c1"
measurement_type = "inhibition at 20 min, 2 µM"
measured_result = "≤ 9%"

[[record]]
smiles_entry = "COc1cncc(Cc2cc(-c3ccccc3)no2)c1"
measurement_type = "inhibition at 20 min, 2 µM"
measured_result = "≤ 9%"

